Each record here notes measured AC50.
- MEASURED_ON: D(1A) dopamine receptor (Homo sapiens)
- Sequence (P21728 whole entry): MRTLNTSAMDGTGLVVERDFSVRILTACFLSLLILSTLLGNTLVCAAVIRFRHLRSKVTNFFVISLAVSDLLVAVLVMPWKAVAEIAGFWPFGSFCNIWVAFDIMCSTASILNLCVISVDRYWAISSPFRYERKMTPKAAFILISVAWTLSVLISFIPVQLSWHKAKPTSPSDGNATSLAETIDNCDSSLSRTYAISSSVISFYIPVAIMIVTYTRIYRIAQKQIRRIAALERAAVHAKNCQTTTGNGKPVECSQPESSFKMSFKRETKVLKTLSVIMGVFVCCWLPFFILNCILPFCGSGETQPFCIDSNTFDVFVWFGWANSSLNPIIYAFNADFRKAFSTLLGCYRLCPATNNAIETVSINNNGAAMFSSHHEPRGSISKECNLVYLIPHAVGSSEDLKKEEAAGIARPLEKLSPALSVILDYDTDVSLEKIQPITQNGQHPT
- Format: functional, cell-based
QUANTITY_NAME: AC50

compound="CN1Cc2c(N)cccc2C(c2ccccc2)C1 (centres undefined) [NOMIFENSINE]" measured_on="D(1A) dopamine receptor (Homo sapiens)" measurement="> 30 µM"
compound="CCOC(=O)c1ncn2c1CN(C)C(=O)c1cc(F)ccc1-2 [FLUMAZENIL]" measured_on="D(1A) dopamine receptor (Homo sapiens)" measurement="> 30 µM"
compound="CNCCc1ccc(OC(=O)C(C)C)c(OC(=O)C(C)C)c1 [IBOPAMINE]" measured_on="D(1A) dopamine receptor (Homo sapiens)" measurement="0.0442 µM"
compound="Cc1ccccc1-n1c(CF)nc2ccc(N)cc2c1=O [AFLOQUALONE]" measured_on="D(1A) dopamine receptor (Homo sapiens)" measurement="> 30 µM"
compound="CC(c1cc2ccccc2s1)N(O)C(N)=O (centres undefined) [ZILEUTON]" measured_on="D(1A) dopamine receptor (Homo sapiens)" measurement="> 10 µM"
compound="COc1ccc2cc(CCC(C)=O)ccc2c1 [NABUMETONE]" measured_on="D(1A) dopamine receptor (Homo sapiens)" measurement="> 30 µM"
compound="CCCN1CCCC[C@H]1C(=O)Nc1c(C)cccc1C [ROPIVACAINE]" measured_on="D(1A) dopamine receptor (Homo sapiens)" measurement="> 30 µM"
compound="CN(C)Cc1nnc2n1-c1ccc(Cl)cc1C(c1ccccc1)=NC2 [ADINAZOLAM]" measured_on="D(1A) dopamine receptor (Homo sapiens)" measurement="> 10 µM"
compound="Cc1ccc(C)c(OCCCC(C)(C)C(=O)O)c1 [GEMFIBROZIL]" measured_on="D(1A) dopamine receptor (Homo sapiens)" measurement="> 10 µM"
compound="O=S1(=O)CCN(CN2CCS(=O)(=O)NC2)CN1 [TAUROLIDINE]" measured_on="D(1A) dopamine receptor (Homo sapiens)" measurement="> 30 µM"
compound="O=C(O)Cc1ccccc1Nc1c(Cl)cccc1Cl [DICLOFENAC]" measured_on="D(1A) dopamine receptor (Homo sapiens)" measurement="> 10 µM"
compound="CCC(=O)O[C@]1(C(=O)CCl)[C@@H](C)C[C@H]2[C@@H]3CCC4=CC(=O)C=C[C@]4(C)[C@@]3(F)[C@@H](O)C[C@@]21C [CLOBETASOL PROPIONATE]" measured_on="D(1A) dopamine receptor (Homo sapiens)" measurement="> 30 µM"
compound="O=C(O)c1ccc(NC(=O)[C@H](Cc2ccc(O)cc2)NC(=O)c2ccccc2)cc1 [BENTIROMIDE]" measured_on="D(1A) dopamine receptor (Homo sapiens)" measurement="> 10 µM"
compound="C[C@]12C=CC(=O)C=C1CC[C@@H]1[C@@H]2CC[C@]2(C)OC(=O)CC[C@@H]12 [TESTOLACTONE]" measured_on="D(1A) dopamine receptor (Homo sapiens)" measurement="> 10 µM"
compound="Cc1ccccc1N1C(=O)c2cc(S(N)(=O)=O)c(Cl)cc2NC1C (centres undefined) [METOLAZONE]" measured_on="D(1A) dopamine receptor (Homo sapiens)" measurement="> 10 µM"
compound="CCOC(=O)c1ccc(C#Cc2ccc3c(c2)C(C)(C)CCS3)nc1 [TAZAROTENE]" measured_on="D(1A) dopamine receptor (Homo sapiens)" measurement="> 30 µM"
compound="C/C=C(/C(=C/C)c1ccc(O)cc1)c1ccc(O)cc1 [DIENESTROL]" measured_on="D(1A) dopamine receptor (Homo sapiens)" measurement="> 10 µM"
compound="COc1ccc([C@@H]2CC(=O)c3c(O)cc(O)cc3O2)cc1O [HESPERETIN]" measured_on="D(1A) dopamine receptor (Homo sapiens)" measurement="> 30 µM"
compound="C[N+]12CCC(CC1)C(OC(=O)C(O)(c1ccccc1)c1ccccc1)C2 (centres undefined)" measured_on="D(1A) dopamine receptor (Homo sapiens)" measurement="> 30 µM"
